protocol text: Antiangiogenic activity in HUAEC assessed as inhibition of cell proliferation after 72 hrs by MTT assay
Assay type: functional
condition summary: Homo sapiens
pIC50: −log10 of the molar value.
The threshold is inclusive: pIC50 of exactly 5 counts as Satisfied; values below receive Not satisfied.

Reference set (4 entries):
{"columns": ["molecule", "answer label"],
 "data": [
  ["O=C1C[C@H]2C(=C3c4c2ccc(O)c4[C@@H](O)C[C@@H]3O)c2cccc(O)c21 [HYPOXYLONOL C]", "Not satisfied"],
  ["CCO[C@@H]1C[C@H](O)C2=C3c4cccc(O)c4C(=O)C[C@@H]3c3ccc(O)c1c32 [HYPOXYLONOL D]", "Satisfied"],
  ["CCO[C@H]1C[C@H](O)C2=C3c4cccc(O)c4C(=O)C[C@@H]3c3ccc(O)c1c32 [HYPOXYLONOL A]", "Not satisfied"],
  ["CO[C@H]1C[C@H](O)C2=C3c4cccc(O)c4C(=O)C[C@@H]3c3ccc(O)c1c32 [HYPOXYLONOL B]", "Not satisfied"]
]}

Q) For this molecule, is measured pIC50 5 or higher? CO[C@@H]1C[C@H](O)C2=C3c4cccc(O)c4C(=O)C[C@@H]3c3ccc(O)c1c32 [HYPOXYLONOL E]
A) Satisfied

Q) Item: O=C1C[C@H]2C(=C3c4c2ccc(O)c4[C@H](O)C[C@@H]3O)c2cccc(O)c21 [HYPOXYLONOL F]
A) Not satisfied
